Values were extracted from patent US7057052B2.

# System: Cdc25B (Homo sapiens, UniProt P30305)
# Sequence (P30305 1-580): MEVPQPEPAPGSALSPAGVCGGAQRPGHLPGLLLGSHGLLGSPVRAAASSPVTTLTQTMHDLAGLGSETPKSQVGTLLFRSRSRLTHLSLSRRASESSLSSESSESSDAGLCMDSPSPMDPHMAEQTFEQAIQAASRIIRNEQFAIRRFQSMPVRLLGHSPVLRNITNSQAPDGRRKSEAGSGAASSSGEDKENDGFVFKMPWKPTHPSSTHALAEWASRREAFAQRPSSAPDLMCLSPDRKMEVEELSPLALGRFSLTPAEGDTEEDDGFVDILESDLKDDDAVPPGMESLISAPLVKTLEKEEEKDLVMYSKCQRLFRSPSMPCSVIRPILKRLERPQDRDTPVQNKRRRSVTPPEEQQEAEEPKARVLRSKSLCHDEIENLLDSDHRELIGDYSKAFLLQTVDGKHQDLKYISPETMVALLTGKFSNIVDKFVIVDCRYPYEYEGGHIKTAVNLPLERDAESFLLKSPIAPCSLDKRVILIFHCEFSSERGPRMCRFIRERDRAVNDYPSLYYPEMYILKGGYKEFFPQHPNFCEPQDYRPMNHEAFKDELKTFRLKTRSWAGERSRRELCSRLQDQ
# Assay Info: Cdc25B phosphatase inhibition (50 μM screen, 3 pt. and 8 pt. IC-50)
# Type: biochemical
# Condition Context: read-out: Percent Inhibition at 50 uM compound, Cdc25 B
Could you please report measured inhibition at 50 µM for the items listed next?
Give bare numbers, in %.

Here is how some molecules turned out for inhibition at 50 µM.
[[record]]
molecule = "CC(C)=CCC/C(C)=C/Cc1cccc2c(C3=C(O)C(=O)C=C(O)C3=O)c[nH]c12 [6C]"
parameter = "inhibition at 50 µM"
unit_symbol = "%"
observed = 95

[[record]]
molecule = "Cc1cccc2c(C3=C(O)C(=O)C=C(O)C3=O)c[nH]c12 [5H]"
parameter = "inhibition at 50 µM"
unit_symbol = "%"
observed = 0

[[record]]
molecule = "CCc1[nH]c2ccccc2c1C1=C(O)C(=O)C=C(O)C1=O [2D]"
parameter = "inhibition at 50 µM"
unit_symbol = "%"
observed = 36


Dear colleague, could you send me inhibition at 50 µM for each of the items below? Thanks.
1. Cc1[nH]c2ccc(Cl)cc2c1C1=C(O)C(=O)C=C(O)C1=O [7E]
2. CC(C)=CCc1cccc2c(C3=C(O)C(=O)C=C(O)C3=O)c[nH]c12 [6B]

Result:
60
99

Dear colleague, could you send me inhibition at 50 µM for each of the items below? Thanks.
1. Cc1cccc2[nH]cc(C3=C(O)C(=O)C=C(O)C3=O)c12 [4A]
2. COc1ccc2[nH]cc(C3=C(O)C(=O)C=C(O)C3=O)c2c1 [4F]
3. O=C1C=C(O)C(=O)C(c2c(-c3ccccc3)[nH]c3ccccc23)=C1O [3B]
4. O=C1C=C(O)C(=O)C(c2c[nH]c3c(Br)cccc23)=C1O [5G]
5. O=C1C=C(O)C(=O)C(c2c[nH]c3ccc(Cl)cc23)=C1O [4C]
6. O=C1C=C(O)C(=O)C(c2c[nH]c3cccc(Br)c23)=C1O [3F]

Result:
1: 9; 2: 0; 3: 38; 4: 45; 5: 32; 6: 6

Dear colleague, could you send me inhibition at 50 µM for each of the items below? Thanks.
1. O=C1C=C(O)C(=O)C(c2c[nH]c3cc4c(cc23)OCO4)=C1O [7H]
2. COc1cccc2[nH]cc(C3=C(O)C(=O)C=C(O)C3=O)c12 [3G]
3. O=C1C=C(O)C(=O)C(c2c[nH]c3cccc(OCc4ccccc4)c23)=C1O [3H]
4. O=C1C=C(O)C(=O)C(c2c[nH]c3cc(Cl)ccc23)=C1O [5B]
5. O=C1C=C(O)C(=O)C(c2c[nH]c3c2ccc2ccccc23)=C1O [8C]
6. COc1cccc2c(C3=C(O)C(=O)C=C(O)C3=O)c[nH]c12 [7A]

Result:
1. 88
2. 21
3. 0
4. 92
5. 79
6. 15

Dear colleague, could you send me inhibition at 50 µM for each of the items below? Thanks.
1. COc1ccc2[nH]c(C)c(C3=C(O)C(=O)C=C(O)C3=O)c2c1 [7D]
2. CC(C)(C)c1cccc2c(C3=C(O)C(=O)C=C(O)C3=O)c[nH]c12 [6G]

Result:
0
33

Dear colleague, could you send me inhibition at 50 µM for each of the items below? Thanks.
1. CC1(c2[nH]c3ccccc3c2C2=C(O)C(=O)C=C(O)C2=O)CC1 [2G]
2. Cc1[nH]c2ccccc2c1C1=C(O)C(=O)C=C(O)C1=O [2C]
3. COc1cc2[nH]cc(C3=C(O)C(=O)C=C(O)C3=O)c2cc1OC [8A]
4. Cc1[nH]c2c(C)cccc2c1C1=C(O)C(=O)C=C(O)C1=O [7G]

Result:
1. 17
2. 9
3. 19
4. 0

Dear colleague, could you send me inhibition at 50 µM for each of the items below? Thanks.
1. COC1=CC(=O)C(OC)=C(c2c[nH]c3c(F)cccc23)C1=O [5E]
2. O=C1C=C(O)C(=O)C(c2c[nH]c3ccc(OCc4ccccc4)cc23)=C1O [4G]
3. O=C1C=C(O)C(=O)C(c2c[nH]c3ccccc23)=C1O [2A]
4. Cc1ccc2c(C3=C(O)C(=O)C=C(O)C3=O)c[nH]c2c1C [8B]
5. O=C1C=C(O)C(=O)C(c2c[nH]c3c(Cc4ccccc4)cccc23)=C1O [6E]
6. Cc1ccccc1Cc1cccc2c(C3=C(O)C(=O)C=C(O)C3=O)c[nH]c12 [6F]
7. Cc1ccc2[nH]c(C)c(C3=C(O)C(=O)C=C(O)C3=O)c2c1 [7C]

Result:
1: 67; 2: 50; 3: 75; 4: 32; 5: 97; 6: 97; 7: 20

Ask: Given Cn1cc(C2=C(O)C(=O)C=C(O)C2=O)c2ccccc21 [2B] , state its recorded inhibition at 50 µM.
Result: 42

###

# System: Cdc25C (Homo sapiens, UniProt P30307)
# Sequence (P30307 whole entry, species assumed): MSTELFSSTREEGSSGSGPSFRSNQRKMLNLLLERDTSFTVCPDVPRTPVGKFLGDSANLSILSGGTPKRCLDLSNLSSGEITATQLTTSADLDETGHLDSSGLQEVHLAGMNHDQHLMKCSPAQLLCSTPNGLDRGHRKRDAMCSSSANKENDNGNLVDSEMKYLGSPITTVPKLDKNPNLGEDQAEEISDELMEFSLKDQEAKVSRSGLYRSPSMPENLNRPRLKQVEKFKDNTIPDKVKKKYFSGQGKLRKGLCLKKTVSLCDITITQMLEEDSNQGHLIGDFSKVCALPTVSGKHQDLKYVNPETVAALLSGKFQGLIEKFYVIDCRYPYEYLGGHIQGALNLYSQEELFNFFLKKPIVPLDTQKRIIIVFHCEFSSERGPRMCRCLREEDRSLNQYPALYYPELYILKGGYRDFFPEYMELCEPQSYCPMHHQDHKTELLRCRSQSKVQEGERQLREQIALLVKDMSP
# Assay Info: Cdc25C phosphatase inhibition screen at 50 μM
# Format: biochemical
# Condition Context: read-out: Percent Inhibition at 50 uM compound, Cdc25 C
Could you please report measured inhibition at 50 µM for the items listed next?
One number for each entry, in %.

[[record]]
compound = "O=C1C=C(O)C(=O)C(c2c[nH]c3cc(Cl)ccc23)=C1O [5B]"
observed = 81

[[record]]
compound = "O=C1C=C(O)C(=O)C(c2c[nH]c3ccc(Cl)cc23)=C1O [4C]"
observed = 45

[[record]]
compound = "O=C1C=C(O)C(=O)C(c2c[nH]c3cccc(OCc4ccccc4)c23)=C1O [3H]"
observed = 2


Dear colleague, could you send me inhibition at 50 µM for each of the items below? Thanks.
1. CC1(c2[nH]c3ccccc3c2C2=C(O)C(=O)C=C(O)C2=O)CC1 [2G]
2. CC(C)(C)c1[nH]c2ccccc2c1C1=C(O)C(=O)C=C(O)C1=O [2H]
3. Cc1[nH]c2ccccc2c1C1=C(O)C(=O)C=C(O)C1=O [2C]
4. O=C1C=C(O)C(=O)C(c2c(-c3ccccc3)[nH]c3ccccc23)=C1O [3B]

Result:
[0, 0, 5, 18]

Dear colleague, could you send me inhibition at 50 µM for each of the items below? Thanks.
1. Cc1ccc2[nH]c(C)c(C3=C(O)C(=O)C=C(O)C3=O)c2c1 [7C]
2. Cc1ccc2c(C3=C(O)C(=O)C=C(O)C3=O)c[nH]c2c1 [5D]
3. CC(C)c1[nH]c2ccccc2c1C1=C(O)C(=O)C=C(O)C1=O [2F]

Result:
[25, 28, 0]

###

Could you please report measured inhibition at 50 µM for the items listed next?
# System: Cdc25A (Homo sapiens, UniProt P30304)
# Sequence (P30304 1-524): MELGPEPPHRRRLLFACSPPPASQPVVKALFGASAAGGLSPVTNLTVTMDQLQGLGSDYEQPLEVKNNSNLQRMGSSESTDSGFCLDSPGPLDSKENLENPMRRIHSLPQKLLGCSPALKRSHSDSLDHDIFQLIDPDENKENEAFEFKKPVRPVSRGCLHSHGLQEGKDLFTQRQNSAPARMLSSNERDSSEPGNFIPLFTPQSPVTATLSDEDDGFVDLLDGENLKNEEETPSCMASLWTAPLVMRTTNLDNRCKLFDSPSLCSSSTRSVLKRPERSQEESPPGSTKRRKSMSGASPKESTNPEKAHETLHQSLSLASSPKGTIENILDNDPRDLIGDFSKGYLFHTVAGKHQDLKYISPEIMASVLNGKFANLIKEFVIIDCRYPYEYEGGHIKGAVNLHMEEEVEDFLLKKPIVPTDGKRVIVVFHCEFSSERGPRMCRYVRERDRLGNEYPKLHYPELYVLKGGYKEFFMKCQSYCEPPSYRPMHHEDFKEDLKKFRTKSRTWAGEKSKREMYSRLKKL
# Assay Info: Cdc25A phosphatase inhibition screen at 50 μM
# Format: biochemical
# Condition Context: read-out: Percent Inhibition at 50 uM compound, Cdc25 A
# Protocol: Using procedures known to those skilled in the art, the compounds listed in Table 3 were screened against Cdc25A, Cdc25B, and Cdc25C at 50 μM. […] To analyze these effects further, the compounds were then screened against Cdc25B in a 3 pt. IC-50, using 1, 7 and 50 μM. Several of the compounds were also screened with an 8 pt. IC-50 process, using 0.1–10 μM, allowing determination of Hill slopes.
Give bare numbers, in %.

Here is how some compounds turned out for inhibition at 50 µM.
[[record]]
compound = "Cc1ccccc1Cc1cccc2c(C3=C(O)C(=O)C=C(O)C3=O)c[nH]c12 [6F]"
parameter = "inhibition at 50 µM"
observed = 90

[[record]]
compound = "Cc1ccc2c(C3=C(O)C(=O)C=C(O)C3=O)c[nH]c2c1C [8B]"
parameter = "inhibition at 50 µM"
observed = 90


Here's the next entry for you.
Ask: Given O=C1C=C(O)C(=O)C(c2c[nH]c3cc(F)ccc23)=C1O [5A] , state its recorded inhibition at 50 µM.
Result: 91
